# Tested on: SW-620
# testMethodNotes: NCI tumour cell line growth inhibition, 48 h
The source made the active and inactive calls. Cut-off read from the data, not from the text of the source: active = GI50 up to about 1.1 µM and inactive = higher.
attributeMeasured: GI50

Use the examples below as a reference point.
| molecule | testedOn | attributeMeasured | result |
| --- | --- | --- | --- |
| O=C(Nc1ccccn1)c1cc2c(cc1Cl)Sc1nccn1S2(=O)=O | SW-620 | GI50 | 45 µM (inactive) |
| Cc1ccc(N/N=C2\C3=C(CCC(C)(C)O3)C(=O)c3ccccc32)cc1 | SW-620 | GI50 | 33.8 µM (inactive) |
| CN1CN(c2ccccc2)C2(CCN(CCCC3(c4cccs4)OCCO3)CC2)C1=O | SW-620 | GI50 | > 100 µM (inactive) |
| C=CCOc1ccc(C2(O)c3ccccc3C3=NCCCN32)cc1 (stereo not given) | SW-620 | GI50 | 44 µM (inactive) |
| C=C1C(=O)O[C@@H]2/C=C(/C)[C@@H](OC(C)=O)C/C=C(\C)C(O)[C@@H](OC(=O)/C(C)=C\C)C12 (stereo not given in full) | SW-620 | GI50 | 16.5 µM (inactive) |

Sure, the documented GI50 for Cc1cc2[nH]c3c(C#N)c(-c4ccccc4)c(/C=N/c4ccc(F)cc4)c(=O)n3c2cc1C is 62.5 µM (inactive)

Sure, the documented GI50 for O=C1CCCCC/C1=C\c1cccc([N+](=O)[O-])c1 is 34.5 µM (inactive)

Sure, the documented GI50 for CC(=O)OC1C=CC2CCN3C(=O)c4cc5c(cc4[C@H]1C23)OCO5 (stereo not given in full) is > 100 µM (inactive)

Sure, the documented GI50 for S=C(NCc1ccccc1)N/N=C/c1ccccn1 is 1.16 µM (inactive)

Sure, the documented GI50 for CC(=O)NNc1nc(C)c(C(=O)/C=C/c2ccc(N(C)C)cc2)s1 is > 100 µM (inactive)
